System: HCT-116 human colon carcinoma cells
Experiment: Cytotoxicity, XTT assay
Format: cell-based
Settings: XTT procedure, 72 hours incubation
Procedure: Cytoxicity was assessed in HCT-116 human colon carcinoma cells by either using an XTT or MTS procedure. Cytotoxicity was assessed in HCT-116 human colon carcinoma cells by XTT (2,3-bis(2-methoxy-4-nitro-5-sulfpphenyl)-5-[(phenylamino)carbonyl]2H-tetrazolium hydroxide) assay as reported in D. A. Scudiero, et al., “Evaluation of soluble tetrazolium/formazan assay for cell growth and drug sensitivity in culture using human and other tumor cell lines,” Cancer Res. 48:4827-4833, 1988. […]
pIC50: −log10 of the molar value.
The threshold is inclusive: pIC50 of exactly 8 counts as 1; values below receive 0.

Examples with answers:
MOLECULE	CATEGORY_LABEL
CC(=O)OC12COC1CCC1(C)C(=O)C(OC(=O)C=Cc3ccccc3)C3=C(C)C(OC(=O)C(O)C(NC(=O)c4ccccc4)c4ccccc4)CC(O)(C(OC(=O)c4ccccc4)C12)C3(C)C (centres unmarked) [Ig, 10-Cinnamoyl-7-deoxy paclitaxel]	0
CCCCCCCC(=O)OC1C(=O)C2(C)CCC3OCC3(OC(C)=O)C2C(OC(=O)c2ccccc2)C2(O)CC(OC(=O)C(O)C(NC(=O)c3ccccc3)c3ccccc3)C(C)=C1C2(C)C (centres unmarked) [Id, 10-Octanoyl-7-deoxy paclitaxel]	0

Please look at the following molecule next.
Does the molecule CC(=O)OC12COC1CCC1(C)C(=O)C(OC(=O)N3CCOCC3)C3=C(C)C(OC(=O)C(O)C(NC(=O)c4ccccc4)c4ccccc4)CC(O)(C(OC(=O)c4ccccc4)C12)C3(C)C (centres unmarked) [Ic, 10-Morpholinoyl-7-deoxy paclitaxel] have recorded pIC50 that is 8 or more? 1
